# assayInfo: Toxicity against BALB/c mouse macrophage by MTT assay
# Assay type: cell-based
# experimentalSetup: mouse macrophages
pIC50 overview
To interpret pIC50, take it as minus log10 of a concentration measured in moles per litre.

COc1cc(O)cc(O)c1C(=O)/C=C/c1ccc2c(c1)OCO2 :: 3.80
COc1ccc(/C=C/C(=O)c2c(O)cc(O)cc2OC)cc1 :: 3.78
C=CCOc1cc(OC)c(C(=O)/C=C/c2ccccn2)c(OCC=C)c1 :: 4.90

[Q] For the compound shown here, COc1cc(O)cc(O)c1C(=O)/C=C/c1ccccc1Br , give the reported pIC50.
[A] 4.84

[Q] Report pIC50 for C=CCOc1cc(/C=C/C(=O)c2c(O)cc(O)cc2OC)cc(OCC=C)c1Br please.
[A] 4.94

[Q] Look at this compound and give its reported pIC50. C=CCOc1cc(OC)c(C(=O)/C=C/c2ccc(Cl)cc2)c(OCC=C)c1
[A] 4.89
